src = paper PMC5068707

- TARGET DESC: T1, SUDV VP30 CTD (139–288) (Sudan ebolavirus (SUDV), UniProt Q5XX03 139-288)
- T1 chain: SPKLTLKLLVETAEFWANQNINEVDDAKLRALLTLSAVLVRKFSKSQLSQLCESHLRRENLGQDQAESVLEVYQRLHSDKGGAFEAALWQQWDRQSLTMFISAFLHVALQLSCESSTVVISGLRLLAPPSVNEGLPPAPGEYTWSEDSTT
- PROTOCOL DESCRIPTION: ITC
METRIC: Kd (µM)

# BINDER, METRIC, UNIT NAME, EXPERIMENTAL VALUE
measured = [
    ("NTPTVAPPAPVYKDTGVD [SUDV NP peptide (600–617) fused to T4 lysozyme]", "Kd", "µM", 7.98),
    ("EQGVDLPPPPLYAQEKRQ [MARV NP peptide (552–569) fused to T4 lysozyme]", "Kd", "µM", 27.1),
    ("RTPTVAPPAPVYRDHSEK [EBOV NP 600–617 fused to T4 lysozyme]", "Kd", "µM", 4.9),
]
